Values compiled from paper PMC12529666.

target: AGO2 F182del (Homo sapiens, UniProt Q9UKV8 1-859, S387D;S824A;S828D;S831D;S834A;del182-182); experiment: RNA Bind-n-Seq (nitrocellulose filter binding and sequencing); miR-122 guide loaded in AGO2; 60 min incubation; 30 mM Tris pH 8.0, 100 mM potassium acetate, 2 mM magnesium acetate, 0.5 mM TCEP, 0.005% NP-40, 0.01 mg/ml yeast tRNA; 3 nM AGO2-miR-122, 100 nM RNA library; 60; high values mean tight binding; conditions: protein: recombinant; tags: His6 (N-terminal, pFastBac HTA)
Sequence (Q9UKV8 other isoform, or with tags, fused parts or gaps S387D;S824A;S828D;S831D;S834A;del182-182): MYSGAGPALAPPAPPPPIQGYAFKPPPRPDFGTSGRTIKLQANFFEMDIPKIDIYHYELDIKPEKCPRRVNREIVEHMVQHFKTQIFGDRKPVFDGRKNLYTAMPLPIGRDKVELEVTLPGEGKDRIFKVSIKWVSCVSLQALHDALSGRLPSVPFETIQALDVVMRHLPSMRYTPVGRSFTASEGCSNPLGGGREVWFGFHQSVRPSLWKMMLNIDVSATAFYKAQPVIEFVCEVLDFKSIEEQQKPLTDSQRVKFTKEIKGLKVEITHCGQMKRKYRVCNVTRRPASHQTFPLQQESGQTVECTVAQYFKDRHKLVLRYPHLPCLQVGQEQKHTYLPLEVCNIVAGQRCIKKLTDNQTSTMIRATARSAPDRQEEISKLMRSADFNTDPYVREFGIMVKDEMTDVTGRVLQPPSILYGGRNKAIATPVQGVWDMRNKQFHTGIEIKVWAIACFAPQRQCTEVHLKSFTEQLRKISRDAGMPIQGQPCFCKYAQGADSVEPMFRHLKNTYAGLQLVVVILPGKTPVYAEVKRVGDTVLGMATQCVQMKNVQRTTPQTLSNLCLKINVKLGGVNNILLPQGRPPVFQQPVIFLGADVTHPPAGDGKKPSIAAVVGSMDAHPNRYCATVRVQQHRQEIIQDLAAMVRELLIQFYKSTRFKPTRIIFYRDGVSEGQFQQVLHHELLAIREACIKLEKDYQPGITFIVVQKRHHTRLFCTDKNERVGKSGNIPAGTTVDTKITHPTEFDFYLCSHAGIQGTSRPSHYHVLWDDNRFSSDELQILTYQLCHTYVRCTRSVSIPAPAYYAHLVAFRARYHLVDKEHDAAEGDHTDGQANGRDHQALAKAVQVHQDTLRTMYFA
# maps each entry to its binding signal

// known answers, use as guide
1) ACATTTCA (ssRNA, constant regions annealed to DNA blockers; guide miR-122 5' phosphate) RNA 1: GAGUUCUACAGUCCGACGAUCCCAACACAUUUCACACCUGGAAUUCUCGGGUGCCAA RNA 2: UGGAGUGUGACAAUGGUGUUUG DNA 1: GATCGTCGGACTGTAGAACTC DNA 2: TTGGCACCCGAGAATTCCA = 4.77 fold enrichment over input
2) ACACCTTG (ssRNA, constant regions annealed to DNA blockers; guide miR-122 5' phosphate) RNA 1: GAGUUCUACAGUCCGACGAUCCCAACACACCUUGCACCUGGAAUUCUCGGGUGCCAA RNA 2: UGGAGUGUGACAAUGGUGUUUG DNA 1: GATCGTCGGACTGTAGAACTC DNA 2: TTGGCACCCGAGAATTCCA = 0.318 fold enrichment over input
3) ATGCCTCA (ssRNA, constant regions annealed to DNA blockers; guide miR-122 5' phosphate) RNA 1: GAGUUCUACAGUCCGACGAUCCCAACAUGCCUCACACCUGGAAUUCUCGGGUGCCAA RNA 2: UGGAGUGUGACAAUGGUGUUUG DNA 1: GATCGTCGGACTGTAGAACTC DNA 2: TTGGCACCCGAGAATTCCA = 0.9 fold enrichment over input
4) ACATTCCA (ssRNA, constant regions annealed to DNA blockers; guide miR-122 5' phosphate) RNA 1: GAGUUCUACAGUCCGACGAUCCCAACACAUUCCACACCUGGAAUUCUCGGGUGCCAA RNA 2: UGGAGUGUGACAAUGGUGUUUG DNA 1: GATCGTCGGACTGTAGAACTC DNA 2: TTGGCACCCGAGAATTCCA = 2.93 fold enrichment over input
5) ACACTTCG (ssRNA, constant regions annealed to DNA blockers; guide miR-122 5' phosphate) RNA 1: GAGUUCUACAGUCCGACGAUCCCAACACACUUCGCACCUGGAAUUCUCGGGUGCCAA RNA 2: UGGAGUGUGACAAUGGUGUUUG DNA 1: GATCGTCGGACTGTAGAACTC DNA 2: TTGGCACCCGAGAATTCCA = 0.152 fold enrichment over input
6) ATACTCTA (ssRNA, constant regions annealed to DNA blockers; guide miR-122 5' phosphate) RNA 1: GAGUUCUACAGUCCGACGAUCCCAACAUACUCUACACCUGGAAUUCUCGGGUGCCAA RNA 2: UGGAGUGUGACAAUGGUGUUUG DNA 1: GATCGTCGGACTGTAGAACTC DNA 2: TTGGCACCCGAGAATTCCA = 0.128 fold enrichment over input
7) ACATCTTA (ssRNA, constant regions annealed to DNA blockers; guide miR-122 5' phosphate) RNA 1: GAGUUCUACAGUCCGACGAUCCCAACACAUCUUACACCUGGAAUUCUCGGGUGCCAA RNA 2: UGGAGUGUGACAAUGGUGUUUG DNA 1: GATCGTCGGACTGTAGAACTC DNA 2: TTGGCACCCGAGAATTCCA = 0.33 fold enrichment over input
8) ACGTCCTA (ssRNA, constant regions annealed to DNA blockers; guide miR-122 5' phosphate) RNA 1: GAGUUCUACAGUCCGACGAUCCCAACACGUCCUACACCUGGAAUUCUCGGGUGCCAA RNA 2: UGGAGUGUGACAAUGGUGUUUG DNA 1: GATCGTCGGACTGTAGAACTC DNA 2: TTGGCACCCGAGAATTCCA = 0.187 fold enrichment over input

Prompt: # query: binding signal of entry ACGTCTTA (ssRNA, constant regions annealed to DNA blockers; guide miR-122 5' phosphate) RNA 1: GAGUUCUACAGUCCGACGAUCCCAACACGUCUUACACCUGGAAUUCUCGGGUGCCAA RNA 2: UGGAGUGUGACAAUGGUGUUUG DNA 1: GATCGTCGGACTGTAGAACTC DNA 2: TTGGCACCCGAGAATTCCA
Completion: 0.333 fold enrichment over input

Prompt: Query GTGCCTCA (ssRNA, constant regions annealed to DNA blockers; guide miR-122 5' phosphate) RNA 1: GAGUUCUACAGUCCGACGAUCCCAACGUGCCUCACACCUGGAAUUCUCGGGUGCCAA RNA 2: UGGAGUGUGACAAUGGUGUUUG DNA 1: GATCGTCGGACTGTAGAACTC DNA 2: TTGGCACCCGAGAATTCCA next
Completion: 0.326 fold enrichment over input

Prompt: Next: ATGTTTTA (ssRNA, constant regions annealed to DNA blockers; guide miR-122 5' phosphate) RNA 1: GAGUUCUACAGUCCGACGAUCCCAACAUGUUUUACACCUGGAAUUCUCGGGUGCCAA RNA 2: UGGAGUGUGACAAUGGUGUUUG DNA 1: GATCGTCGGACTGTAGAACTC DNA 2: TTGGCACCCGAGAATTCCA
Completion: 0.21 fold enrichment over input
